Measured IC50, listed per entry.
Tested target: mouse 11β-HSD1 (Mus musculus, UniProt P50172)
Construct: 100 ug/ml human/mouse liver microsomes; from tissue; host or cells: mouse liver microsomes
Sequence (P50172 whole entry): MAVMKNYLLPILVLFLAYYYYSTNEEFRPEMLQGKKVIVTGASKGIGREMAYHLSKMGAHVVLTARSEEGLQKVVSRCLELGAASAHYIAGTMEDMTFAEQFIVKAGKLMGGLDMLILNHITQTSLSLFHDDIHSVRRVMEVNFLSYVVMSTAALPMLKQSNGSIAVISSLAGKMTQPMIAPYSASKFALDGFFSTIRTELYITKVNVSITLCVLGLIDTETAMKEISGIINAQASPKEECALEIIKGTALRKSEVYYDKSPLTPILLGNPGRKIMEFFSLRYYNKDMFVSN
Protocol: Enzyme activity analysis on mouse 11β-HSD1 (HTRF cortisol, liver microsomes)
Format: biochemical
Measurement conditions: second value of cell
Protocol: After culturing at 37° C. for 2 hours, 5 μl of cryptate-labeled anti-cortisol antibody and 5 μl of d2-labeled cortisol were added thereto. After further culturing at room temperature for 2 hours, a homogeneous time-resolved fluorescence (HTRF, Cisbio) signal was measured. From each analysis, based on a standard curve calculated using cortisols of several known concentrations, an amount of produced cortisol was tested. […]
# number only, unit µM dropped from output

A selection of reference data follows.
INSERT INTO results (compound, unit_name, measured_result) VALUES
  ('CC(C)(NS(=O)(=O)c1c(Cl)cccc1Cl)C(=O)NC1C2CC3CC(C2)CC1C3 (stereo not shown)', 'µM', 0.02),
  ('CCCN(C(C)(C)C(=O)NC1C2CC3CC1CC(C(N)=O)(C3)C2)S(=O)(=O)c1ccccc1C(F)(F)F (stereo not shown)', 'µM', 0.462),
  ('CN(C1(C(=O)NC2C3CC4CC2CC(C(N)=O)(C4)C3)CCC1)S(=O)(=O)c1ccccc1N (stereo not shown)', 'µM', 0.004),
  ('CC(C)(NS(=O)(=O)c1c(F)cccc1F)C(=O)NC1C2CC3CC(C2)CC1C3 (stereo not shown)', 'µM', 0.156),
  ('O=C(NC1C2CC3CC(C2)CC1C3)C1(NS(=O)(=O)c2ccccc2)CCC1 (stereo not shown)', 'µM', 0.178),
  ('CC(C)(NS(=O)(=O)c1ccc(F)cc1Br)C(=O)NC1C2CC3CC1CC(C(N)=O)(C3)C2 (stereo not shown)', 'µM', 0.014),
  ('CC(C)(NS(=O)(=O)c1cccc2cccnc12)C(=O)NC1C2CC3CC(C2)CC1C3 (stereo not shown)', 'µM', 0.008),
  ('CC(C)(NS(=O)(=O)CCc1cccc2ccccc12)C(=O)NC1C2CC3CC(C2)CC1C3 (stereo not shown)', 'µM', 2.14),
  ('CC(C)(NS(=O)(=O)c1ccc(F)c(Cl)c1)C(=O)NC1C2CC3CC(C2)CC1C3 (stereo not shown)', 'µM', 0.904),
  ('COc1cccc(S(=O)(=O)NC(C)(C)C(=O)NC2C3CC4CC(C3)CC2C4)c1 (stereo not shown)', 'µM', 0.329);

[in] Give the reported IC50 for this compound. CCN(C(C)(C)C(=O)NC1C2CC3CC1CC(C(N)=O)(C3)C2)S(=O)(=O)c1c(F)cccc1F (stereo not shown)
[out] 0.235

[in] Return the recorded IC50 value; entry: NC(=O)C12CC3CC(C1)C(NC(=O)C1(NS(=O)(=O)c4ccccc4)CCC1)C(C3)C2 (stereo not shown)
[out] 0.056

[in] Determine its reported IC50: CC(C)(NS(=O)(=O)c1ccccc1C(F)(F)F)C(=O)NC1C2CC3CC(C2)CC1C3 (stereo not shown)
[out] 0.267

[in] Provide one value: measured IC50 of CCN(C(C)(C)C(=O)NC1C2CC3CC1CC(C(N)=O)(C3)C2)S(=O)(=O)c1ccccc1C(F)(F)F (stereo not shown)
[out] 1.44

[in] Check the records and state IC50 for CC(C)(NS(=O)(=O)c1c(Cl)cc(Cl)cc1Cl)C(=O)NC1C2CC3CC1CC(C(N)=O)(C3)C2 (stereo not shown)
[out] 0.011

---

Tested target: human 11β-HSD1 (Homo sapiens, UniProt P28845)
Construct: 100 ug/ml human/mouse liver microsomes; from tissue; host or cells: human liver microsomes
Sequence (P28845 whole entry): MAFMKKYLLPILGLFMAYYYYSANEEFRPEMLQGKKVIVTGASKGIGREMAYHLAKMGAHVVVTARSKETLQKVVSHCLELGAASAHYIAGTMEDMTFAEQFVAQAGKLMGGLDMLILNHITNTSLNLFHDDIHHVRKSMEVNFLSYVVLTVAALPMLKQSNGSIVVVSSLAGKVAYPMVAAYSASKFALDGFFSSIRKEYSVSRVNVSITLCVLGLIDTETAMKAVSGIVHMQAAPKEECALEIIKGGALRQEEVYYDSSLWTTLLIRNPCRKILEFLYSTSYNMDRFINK
Protocol: Enzyme activity analysis on human 11β-HSD1 (HTRF cortisol, liver microsomes)
Type: biochemical
Measurement conditions: first value of cell
Measure name: IC50 (µM)
Output spec: scalar in µM, unitless text.

INSERT INTO measurements (compound, tested_target, measure_name, measured_result) VALUES
  ('NC(=O)C12CC3CC(C1)C(NC(=O)C1(NS(=O)(=O)c4cc(Cl)c(Cl)cc4Cl)CCC1)C(C3)C2 (stereo not shown)', 'human 11β-HSD1 (Homo sapiens, UniProt P28845)', 'IC50', 0.052),
  ('NC(=O)C12CC3CC(C1)C(NC(=O)C1(NS(=O)(=O)c4cccc(Cl)c4Cl)CCCC1)C(C3)C2 (stereo not shown)', 'human 11β-HSD1 (Homo sapiens, UniProt P28845)', 'IC50', 0.009),
  ('CC(C)(NS(=O)(=O)c1cc(C(F)(F)F)ccc1Br)C(=O)NC1C2CC3CC1CC(C(N)=O)(C3)C2 (stereo not shown)', 'human 11β-HSD1 (Homo sapiens, UniProt P28845)', 'IC50', 0.014),
  ('CC(C)(NS(=O)(=O)c1ccccc1)C(=O)NC1C2CC3CC(C2)CC1C3 (stereo not shown)', 'human 11β-HSD1 (Homo sapiens, UniProt P28845)', 'IC50', 0.04);

Next compound, IC50 to be filled in.
[in] Report value only: IC50, human 11β-HSD1 (Homo sapiens, UniProt P28845), CC(C)(NS(=O)(=O)c1ccccc1F)C(=O)NC1C2CC3CC1CC(C(N)=O)(C3)C2 (stereo not shown)
[out] 0.039

---

Tested target: human 11β-HSD1 (Homo sapiens, UniProt P28845)
Construct: 100 ug/ml human/mouse liver microsomes; from tissue; host or cells: human liver microsomes
Protocol: Enzyme activity analysis on human 11β-HSD1 (HTRF cortisol, liver microsomes)
Format: biochemical
Measurement conditions: first value of cell
Measure name: IC50

Example entries begin here.
INSERT INTO assay_data (molecule, tested_target, measured_result) VALUES
  ('CC(C)(NS(=O)(=O)c1ccc(Br)cc1)C(=O)NC1C2CC3CC(C2)CC1C3 (stereo not drawn) [compound 65]', 'human 11β-HSD1 (Homo sapiens, UniProt P28845)', '0.996 µM'),
  ('CC(C)(NS(=O)(=O)c1cccc(F)c1)C(=O)NC1C2CC3CC(C2)CC1C3 (stereo not drawn) [compound 30]', 'human 11β-HSD1 (Homo sapiens, UniProt P28845)', '0.192 µM'),
  ('CC(C)(NS(=O)(=O)c1ccccc1C(F)(F)F)C(=O)NC1C2CC3CC1CC(O)(C3)C2 (stereo not drawn) [compound 72]', 'human 11β-HSD1 (Homo sapiens, UniProt P28845)', '0.111 µM');

# context switch: different molecule, same IC50
[in] State its IC50 for this molecule: CC(C)(NS(=O)(=O)c1cccnc1Cl)C(=O)NC1C2CC3CC1CC(C(N)=O)(C3)C2 (stereo not drawn) [compound 96]
[out] 0.223 µM

---

Quick reference: IC50 of the listed items.
Tested target: human 11β-HSD1 (Homo sapiens, UniProt P28845)
Construct: 100 ug/ml human/mouse liver microsomes; from tissue; host or cells: human liver microsomes
Protocol: Enzyme activity analysis on human 11β-HSD1 (HTRF cortisol, liver microsomes)
Format: biochemical
Measurement conditions: first value of cell
Give a bare numeral; the unit µM is implied.

Below are worked cases with known answers.
INSERT INTO results (molecule, measured_result) VALUES
  ('COc1ccc(S(=O)(=O)NC(C)(C)C(=O)NC2C3CC4CC2CC(C(N)=O)(C4)C3)cc1[N+](=O)[O-] (stereo not shown) [compound 111]', 1.3),
  ('Cc1cc(C)cc(S(=O)(=O)NC(C)(C)C(=O)NC2C3CC4CC(C3)CC2C4)c1 (stereo not shown) [compound 59]', 0.331),
  ('CC(C)(NS(=O)(=O)c1ccc(C(C)(C)C)cc1)C(=O)NC1C2CC3CC(C2)CC1C3 (stereo not shown) [compound 18]', 1.14);

Shifting focus to the molecule that follows.
[in] For Cc1ccccc1S(=O)(=O)NC(C)(C)C(=O)NC1C2CC3CC1CC(C(N)=O)(C3)C2 (stereo not shown) [compound 104] , write its IC50.
[out] 0.014

---

Tested target: mouse 11β-HSD1 (Mus musculus, UniProt P50172)
Construct: 100 ug/ml human/mouse liver microsomes; from tissue; host or cells: mouse liver microsomes
Protocol: Enzyme activity analysis on mouse 11β-HSD1 (HTRF cortisol, liver microsomes)
Type: biochemical
Measurement conditions: second value of cell
The following molecules are shown together with reported IC50 values.
Could you give me the number in µM? Just the number is fine.

# example entries with known answers
INSERT INTO results (molecule, measure_name, measured_result) VALUES
  ('CCN(C(C)(C)C(=O)NC1C2CC3CC1CC(C(N)=O)(C3)C2)S(=O)(=O)c1ccccc1N (stereo not shown)', 'IC50', 0.154),
  ('NC(=O)C12CC3CC(C1)C(NC(=O)C1(NS(=O)(=O)c4ccccc4Br)CC1)C(C3)C2 (stereo not shown)', 'IC50', 0.048);

[in] State measured IC50 of the molecule CC(C)(NS(=O)(=O)c1cc(F)ccc1F)C(=O)NC1C2CC3CC1CC(C(N)=O)(C3)C2 (stereo not shown) with mouse 11β-HSD1 (Mus musculus, UniProt P50172).
[out] 0.453

Just for reference, patent US9073830B2 is where these values come from.
